tested on: HEp-2 cells; assay: Cytotoxicity assay (PrestoBlue) in HEp-2 cells; format: cell-based, human; settings: HEp-2
MEASURE_NAME: HEp-2 C50 (second) (µM)
Answers are plain numbers, in µM.

{"CHEMICAL_SMILES": "COc1c(F)c(F)c(Cn2c3cc(=O)n(Cc4cccc(Cl)n4)c(C)c3c(=O)n2-c2ccccn2)c(F)c1F", "UOM": "µM", "HEp-2 C50 (second)": 5}

Would you mind listing HEp-2 C50 (second) for each of the following compounds?
1. Cc1c2c(=O)n(-c3ccccn3)n(Cc3c(Cl)cccc3Cl)c2cc(=O)n1Cc1cccc(C(F)(F)F)n1
2. COc1ccc(Cn2c3cc(=O)n(Cc4cccc(C(F)(F)F)n4)c(C)c3c(=O)n2-c2ccccn2)cc1
3. COc1c(F)c(F)c(Cn2c3cc(=O)n(Cc4cccc(C(F)(F)F)n4)c(C)c3c(=O)n2-c2ncc(F)cc2F)c(F)c1F
4. COc1c(F)c(F)c(Cn2c3cc(=O)n(Cc4cccc(C(F)(F)F)n4)c(C)c3c(=O)n2-c2ccccn2)c(F)c1F
5. COc1ccc(Cn2c3cc(=O)n(Cc4cccc(Cl)n4)c(C)c3c(=O)n2-c2ccccn2)cc1
6. COc1ccc(Cn2c3cc(=O)n(Cc4cccc(C(F)(F)F)n4)c(C)c3c(=O)n2-c2ncc(F)cc2F)cc1
7. COc1c(F)c(F)c(Cn2c3cc(=O)n(Cc4cccc(Cl)n4)c(C)c3c(=O)n2-c2ncc(F)cc2F)c(F)c1F
8. COc1ccc(Cn2c3cc(=O)n(Cc4cccc(Cl)n4)c(C)c3c(=O)n2-c2ncc(F)cc2F)cc1

5
5
10
5
50
45
45
45

* * *

tested on: “F1” HAE; conditions: “F1” donor primary HAE cells
MEASURE_NAME: “F1” HAE C50 (second)

Some molecules with known “F1” HAE C50 (second) results, for comparison:
{"CHEMICAL_SMILES": "COc1c(F)c(F)c(Cn2c3cc(=O)n(Cc4cccc(Cl)n4)c(C)c3c(=O)n2-c2ncc(F)cc2F)c(F)c1F", "“F1” HAE C50 (second)": "45 µM"}
{"CHEMICAL_SMILES": "COc1ccc(Cn2c3cc(=O)n(Cc4cccc(Cl)n4)c(C)c3c(=O)n2-c2ccccn2)cc1", "“F1” HAE C50 (second)": "45 µM"}
{"CHEMICAL_SMILES": "COc1c(F)c(F)c(Cn2c3cc(=O)n(Cc4cccc(C(F)(F)F)n4)c(C)c3c(=O)n2-c2ncc(F)cc2F)c(F)c1F", "“F1” HAE C50 (second)": "10 µM"}

Would you mind listing “F1” HAE C50 (second) for each of the following molecules?
1. COc1ccc(Cn2c3cc(=O)n(Cc4cccc(C(F)(F)F)n4)c(C)c3c(=O)n2-c2ncc(F)cc2F)cc1
2. COc1c(F)c(F)c(Cn2c3cc(=O)n(Cc4cccc(Cl)n4)c(C)c3c(=O)n2-c2ccccn2)c(F)c1F
3. COc1ccc(Cn2c3cc(=O)n(Cc4cccc(Cl)n4)c(C)c3c(=O)n2-c2ncc(F)cc2F)cc1

1: 45 µM; 2: 45 µM; 3: 45 µM

* * *

Task for the reader: assign each of the following compounds its reported pEC50.
test system: recRSV-fireSMASh H1632Q; test: microbe, parasite or virus in culture; format: cell-based; conditions: human respiratory syncytial virus; recombinant recRSV-fireSMASh, HEp-2, RSV L H1632Q
Give bare numbers, as −log10 of the molar value.

{"CHEMICAL_SMILES": "COc1c(F)c(F)c(Cn2c3cc(=O)n(Cc4cccc(C(F)(F)F)n4)c(C)c3c(=O)n2-c2ncc(F)cc2F)c(F)c1F", "TEST_SYSTEM": "recRSV-fireSMASh H1632Q", "pEC50": 5.32}

Lab note: next compound to report on.
Any idea what its pEC50 is? The compound is "COc1ccc(Cn2c3cc(=O)n(Cc4cccc(Cl)n4)c(C)c3c(=O)n2-c2ccccn2)cc1" 5.35

* * *

tested on: recRSV-mKate; test: microbe, parasite or virus in culture; type: cell-based; conditions: human respiratory syncytial virus, 144 h; 3D-HAE, progeny virus titers six days after infection; read-out: half-maximal effective concentration (EC50)
MEASURE_NAME: pEC50
Give bare numbers, as −log10 of the molar value.

Any idea what its pEC50 is? The compound is "COc1ccc(Cn2c3cc(=O)n(Cc4cccc(Cl)n4)c(C)c3c(=O)n2-c2ccccn2)cc1" 7.15

* * *

test system: “M4” HAE; details: “M4” donor primary HAE cells
MEASURE_NAME: “M4” HAE C50 (second)

{"CHEMICAL_SMILES": "COc1c(F)c(F)c(Cn2c3cc(=O)n(Cc4cccc(Cl)n4)c(C)c3c(=O)n2-c2ccccn2)c(F)c1F", "“M4” HAE C50 (second)": "45 µM"}

Would you mind listing “M4” HAE C50 (second) for each of the following compounds?
1. COc1c(F)c(F)c(Cn2c3cc(=O)n(Cc4cccc(C(F)(F)F)n4)c(C)c3c(=O)n2-c2ncc(F)cc2F)c(F)c1F
2. COc1c(F)c(F)c(Cn2c3cc(=O)n(Cc4cccc(Cl)n4)c(C)c3c(=O)n2-c2ncc(F)cc2F)c(F)c1F
3. COc1ccc(Cn2c3cc(=O)n(Cc4cccc(Cl)n4)c(C)c3c(=O)n2-c2ncc(F)cc2F)cc1
4. COc1ccc(Cn2c3cc(=O)n(Cc4cccc(C(F)(F)F)n4)c(C)c3c(=O)n2-c2ncc(F)cc2F)cc1
5. COc1ccc(Cn2c3cc(=O)n(Cc4cccc(Cl)n4)c(C)c3c(=O)n2-c2ccccn2)cc1

1. 10 µM
2. 45 µM
3. 45 µM
4. 45 µM
5. 45 µM

* * *

Task for the reader: assign each of the following compounds its reported CC50.
tested on: HEp-2 cells; assay: Cytotoxicity assay (PrestoBlue) in HEp-2 cells; type: cell-based, human; conditions: HEp-2 cells, 48-hour incubation; max concentration tested

Some compounds with known CC50 results, for comparison:
{"CHEMICAL_SMILES": "COc1c(F)c(F)c(Cn2c3cc(=O)n(Cc4cccc(Cl)n4)c(C)c3c(=O)n2-c2ncc(F)cc2F)c(F)c1F", "CC50": "> 45 µM"}
{"CHEMICAL_SMILES": "Cc1c2c(=O)n(-c3ccccn3)n(Cc3c(Cl)cccc3Cl)c2cc(=O)n1Cc1cccc(C(F)(F)F)n1", "CC50": "> 5 µM"}
{"CHEMICAL_SMILES": "COc1c(F)c(F)c(Cn2c3cc(=O)n(Cc4cccc(C(F)(F)F)n4)c(C)c3c(=O)n2-c2ccccn2)c(F)c1F", "CC50": "> 5 µM"}

Lab note: next compound to report on.
Any idea what its CC50 is? The compound is "COc1ccc(Cn2c3cc(=O)n(Cc4cccc(C(F)(F)F)n4)c(C)c3c(=O)n2-c2ccccn2)cc1" > 5 µM

* * *

assay: Cytotoxicity assay (PrestoBlue) in HEp-2 cells; format: cell-based, human; conditions: human; HEp-2 cells, 48-hour incubation; max concentration tested
MEASURE_NAME: CC50 at 48 h

Some molecules with known CC50 at 48 h results, for comparison:
{"CHEMICAL_SMILES": "Cc1c2c(=O)n(-c3ccccn3)n(Cc3c(Cl)cccc3Cl)c2cc(=O)n1Cc1cccc(C(F)(F)F)c1", "RECORDED_RESULT": "> 5 µM"}
{"CHEMICAL_SMILES": "COc1ccc(Cn2c3cc(=O)n(Cc4cccc(Cl)n4)c(C)c3c(=O)n2-c2ccccn2)cc1", "RECORDED_RESULT": "> 45 µM"}

Any idea what its CC50 at 48 h is? The molecule is "COc1c(F)c(F)c(Cn2c3cc(=O)n(Cc4cccc(C(F)(F)F)n4)c(C)c3c(=O)n2-c2ncc(F)cc2F)c(F)c1F" > 45 µM
